# Target Or Test System: intestinal bile acid transportation system (Na^+ -dependent) in brush border membrane vesicles of the ileum (Oryctolagus cuniculus, UniProt Q28727)
# Construct: Brush border membrane vesicles were prepared from the intestinal cells of the small intestine; from tissue; host or cells: brush border membrane vesicles from the terminal 7/10 of the small intestine (ileum) of male New Zealand rabbits
# Sequence (Q28727 whole entry): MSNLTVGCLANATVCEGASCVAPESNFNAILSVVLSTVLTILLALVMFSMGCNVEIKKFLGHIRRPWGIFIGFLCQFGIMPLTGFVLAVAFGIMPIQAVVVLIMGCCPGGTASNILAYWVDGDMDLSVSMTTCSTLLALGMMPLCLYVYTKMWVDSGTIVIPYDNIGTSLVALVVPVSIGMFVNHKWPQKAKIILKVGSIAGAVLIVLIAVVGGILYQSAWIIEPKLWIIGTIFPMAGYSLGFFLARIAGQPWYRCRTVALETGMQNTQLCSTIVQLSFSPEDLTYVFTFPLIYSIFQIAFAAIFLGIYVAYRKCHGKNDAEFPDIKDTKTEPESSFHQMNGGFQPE
# Assay Name: Inhibition of [^3 H]-taurocholate uptake in brush border membrane vesicles of the ileum of rabbits
# Format: biochemical, rabbit
# Condition: quotient of IC50Na of reference taurochenodeoxycholate (TCDC) and IC50Na of test substance; Na^+ -dependent transportation content (Na-T-B minus K-T-B), 50 μM taurocholate, usually 1 minute
With a cut-off of 1, any IC50Na TCDC / IC50Na -substance strictly below it is called Condition met; any IC50Na TCDC / IC50Na -substance meeting it or above is called Condition not met.

Hello, is IC50Na TCDC / IC50Na -substance of the following compound strictly smaller than 1? C[C@H](Cc1nn[nH]n1)[C@H]1CC[C@H]2[C@@H]3[C@H](O)C[C@@H]4C[C@H](O)CC[C@]4(C)[C@H]3C[C@H](O)[C@]12C [Example 4]
Condition met

Hello, is IC50Na TCDC / IC50Na -substance of the following compound strictly smaller than 1? C[C@H](CCC(=O)N[C@H]1CC[C@@]2(C)[C@@H](C1)C[C@@H](O)[C@@H]1[C@@H]2C[C@H](O)[C@]2(C)[C@@H]([C@H](C)CCC(=O)Nc3nn[nH]n3)CC[C@@H]12)[C@H]1CC[C@H]2[C@@H]3[C@H](O)C[C@@H]4C[C@H](O)CC[C@]4(C)[C@H]3C[C@H](O)[C@]12C [Example 22]
Condition not met

Hello, is IC50Na TCDC / IC50Na -substance of the following compound strictly smaller than 1? C[C@H](CCC(=O)NCc1nn[nH]n1)[C@H]1CC[C@H]2[C@@H]3[C@H](O)C[C@@H]4C[C@H](O)CC[C@]4(C)[C@H]3C[C@H](O)[C@]12C [Example 29]
Condition met

Hello, is IC50Na TCDC / IC50Na -substance of the following compound strictly smaller than 1? C[C@H](CCCc1nn[nH]n1)[C@H]1CC[C@H]2[C@@H]3[C@H](O)C[C@@H]4C[C@@H](OCCO)CC[C@]4(C)[C@H]3C[C@H](O)[C@]12C [Example 16]
Condition met

Hello, is IC50Na TCDC / IC50Na -substance of the following compound strictly smaller than 1? C[C@H](CCC(=O)Nc1nn[nH]n1)[C@H]1CC[C@H]2[C@@H]3[C@H](O)C[C@@H]4C[C@H](O)CC[C@]4(C)[C@H]3C[C@H](O)[C@]12C [Example 24]
Condition not met

Hello, is IC50Na TCDC / IC50Na -substance of the following compound strictly smaller than 1? CC(CCCc1nn[nH]n1)C1CCC2C3C(O)CC4CC(O)CCC4(C)C3CC(O)C12C (stereo not shown) [Example 14]
Condition not met

Hello, is IC50Na TCDC / IC50Na -substance of the following compound strictly smaller than 1? C[C@H](CCC(=O)NCCO[C@H]1CC[C@@]2(C)[C@@H](C1)C[C@@H](O)[C@@H]1[C@@H]2C[C@H](O)[C@]2(C)[C@@H]([C@H](C)CCCc3nn[nH]n3)CC[C@@H]12)[C@H]1CC[C@H]2[C@@H]3[C@@H](O)C[C@@H]4C[C@H](O)CC[C@]4(C)[C@H]3CC[C@]12C [Example 27]
Condition met

----------
# Target Or Test System: intestinal bile acid transportation system (Na^+ -dependent) in brush border membrane vesicles of the ileum (Oryctolagus cuniculus)
# Construct: Brush border membrane vesicles were prepared from the intestinal cells of the small intestine; from tissue; host or cells: brush border membrane vesicles from the terminal 7/10 of the small intestine (ileum) of male New Zealand rabbits
# Assay Name: Inhibition of [^3 H]-taurocholate uptake in brush border membrane vesicles of the ileum of rabbits
# Assay type: biochemical, rabbit
# Condition: quotient of IC50 of reference taurochenodeoxycholate (TCDC) and IC50 of test substance; [^3 H]-taurocholate uptake, 50 μM taurocholate, usually 1 minute
With a cut-off of 0.3, any IC50 -TCDC / IC50 -substance strictly below it is called T; any IC50 -TCDC / IC50 -substance meeting it or above is called F.

Hello, is IC50 -TCDC / IC50 -substance of the following compound strictly smaller than 0.3? C[C@H](Cc1nn[nH]n1)[C@H]1CC[C@H]2[C@@H]3[C@H](O)C[C@@H]4C[C@H](O)CC[C@]4(C)[C@H]3C[C@H](O)[C@]12C
T

Hello, is IC50 -TCDC / IC50 -substance of the following compound strictly smaller than 0.3? C[C@H](CCC(=O)NCCO[C@H]1CC[C@@]2(C)[C@@H](C1)C[C@@H](O)[C@@H]1[C@@H]2C[C@H](O)[C@]2(C)[C@@H]([C@H](C)CCCc3nn[nH]n3)CC[C@@H]12)[C@H]1CC[C@H]2[C@@H]3[C@@H](O)C[C@@H]4C[C@H](O)CC[C@]4(C)[C@H]3CC[C@]12C
T

Hello, is IC50 -TCDC / IC50 -substance of the following compound strictly smaller than 0.3? C[C@H](CCC(=O)Nc1nn[nH]n1)[C@H]1CC[C@H]2[C@@H]3[C@H](O)C[C@@H]4C[C@H](O)CC[C@]4(C)[C@H]3C[C@H](O)[C@]12C
F

Hello, is IC50 -TCDC / IC50 -substance of the following compound strictly smaller than 0.3? C[C@H](CCCc1nn[nH]n1)[C@H]1CC[C@H]2[C@@H]3[C@H](O)C[C@@H]4C[C@@H](OCCO)CC[C@]4(C)[C@H]3C[C@H](O)[C@]12C
T

Hello, is IC50 -TCDC / IC50 -substance of the following compound strictly smaller than 0.3? CC(CCCc1nn[nH]n1)C1CCC2C3C(O)CC4CC(O)CCC4(C)C3CC(O)C12C (stereo not shown)
F

Hello, is IC50 -TCDC / IC50 -substance of the following compound strictly smaller than 0.3? C[C@H](CCC(=O)NCc1nn[nH]n1)[C@H]1CC[C@H]2[C@@H]3[C@H](O)C[C@@H]4C[C@H](O)CC[C@]4(C)[C@H]3C[C@H](O)[C@]12C
F

Hello, is IC50 -TCDC / IC50 -substance of the following compound strictly smaller than 0.3? C[C@H](CCC(=O)N[C@H]1CC[C@@]2(C)[C@@H](C1)C[C@@H](O)[C@@H]1[C@@H]2C[C@H](O)[C@]2(C)[C@@H]([C@H](C)CCC(=O)Nc3nn[nH]n3)CC[C@@H]12)[C@H]1CC[C@H]2[C@@H]3[C@H](O)C[C@@H]4C[C@H](O)CC[C@]4(C)[C@H]3C[C@H](O)[C@]12C
F
